# testedOn: Avi-humanTEAD4 217-434 / Cy5 labeled humanYAP 60-100 (Homo sapiens (Human))
# Sequence (Q15561 217-434): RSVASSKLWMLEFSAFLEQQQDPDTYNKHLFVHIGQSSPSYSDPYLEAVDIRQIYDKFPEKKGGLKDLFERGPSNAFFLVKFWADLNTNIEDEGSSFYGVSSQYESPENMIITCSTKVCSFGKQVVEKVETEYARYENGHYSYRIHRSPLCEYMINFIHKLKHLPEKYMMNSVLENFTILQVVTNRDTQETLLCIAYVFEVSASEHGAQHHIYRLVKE
# assayNotes: TR-FRET YAP-TEAD4 in-vitro biochemical assay
# Assay type: binding
# assayContext: 1 nM Avi-humanTEAD4 217-434, 20 nM Cy5-humanYAP 60-100, 1 h room temperature
Where a name gives a salt, the structure may show the parent alone.
quantityMeasured: pIC50
Worth noting: pIC50 values are minus log10 of concentrations stated in mol/L.

Example results:
compound	pIC50
CC(C)(C)NC[C@@]1(c2ccccc2)Cc2c(cc(F)c(Cl)c2-c2c(C(N)=O)ccc(OC(F)F)c2F)O1 (atropisomer, axis not shown)	7.85
NC[C@@]1(c2ccccc2)Cc2c(ncc(Cl)c2-c2c(F)cccc2C(N)=O)O1 (atropisomer, axis not shown)	5.89
NC[C@@]1(c2ccccc2)Cc2c(cc(F)c(Cl)c2-c2cc(SC(F)(F)CO)ccc2C(N)=O)O1 (atropisomer, axis not shown)	6.99
NC[C@@]1(c2ccccc2)Cc2c(ccc(Cl)c2-c2c(C(N)=O)ccc(OCC(=O)O)c2F)O1 (atropisomer, axis not shown) [Example 16, trifluoroacetate salt]	8.22

Value of pIC50 reported for the compound COc1ccc(C(N)=O)c(-c2c(Cl)ccc3c2[C@H](O)[C@@](CN)(c2ccc[nH]c2=O)O3)c1F (atropisomer, axis not shown) is 7.66

Value of pIC50 reported for the compound COc1ccc(C(=O)Nc2cccnc2)c(-c2c(Cl)ccc3c2C[C@@](CN)(c2ccccc2)O3)c1F (atropisomer, axis not shown) is 8.30
